Listed here are compounds together with their documented EC50.
- Tested on: p21 induction in HCT116 cells
- experiment notes: p21 induction in HCT116 cells
- Assay type: cell-based
- study conditions: Homo sapiens, HCT-116, 24 h, HCT116 cells, 24 h compound incubation; read-out: P21_EC50

Record excerpt, results attached:
[
  {
    "compound": "CCc1c(N2CCN(C(=O)c3ncnc(C)c3O)[C@H]3CC[C@@H]32)c(=O)c2nc(N3CC[C@H]4C[C@H]43)cnc2n1CC(=O)Nc1ccc(C(F)(F)F)cc1F (relative stereo)",
    "target": "p21 induction in HCT116 cells",
    "EC50": "< 500 nM"
  },
  {
    "compound": "C/C=C/c1nc2c(=O)c(N3CCN(C(=O)c4ncnc(C)c4O)CC3)c(CC)n(CC(=O)Nc3ccc(C(F)(F)F)cc3Cl)c2nc1C",
    "target": "p21 induction in HCT116 cells",
    "EC50": "500 to 2000 nM"
  }
]

The measured EC50 associated with CCc1c(N2CCN(C(=O)c3c(O)ccc4nc[nH]c34)CC2)c(=O)c2ncc(C)nc2n1CC(=O)Nc1ccc(C(F)(F)F)cc1Cl reads > 5000 nM
